pIC50 listing for selected compounds.
Target chain: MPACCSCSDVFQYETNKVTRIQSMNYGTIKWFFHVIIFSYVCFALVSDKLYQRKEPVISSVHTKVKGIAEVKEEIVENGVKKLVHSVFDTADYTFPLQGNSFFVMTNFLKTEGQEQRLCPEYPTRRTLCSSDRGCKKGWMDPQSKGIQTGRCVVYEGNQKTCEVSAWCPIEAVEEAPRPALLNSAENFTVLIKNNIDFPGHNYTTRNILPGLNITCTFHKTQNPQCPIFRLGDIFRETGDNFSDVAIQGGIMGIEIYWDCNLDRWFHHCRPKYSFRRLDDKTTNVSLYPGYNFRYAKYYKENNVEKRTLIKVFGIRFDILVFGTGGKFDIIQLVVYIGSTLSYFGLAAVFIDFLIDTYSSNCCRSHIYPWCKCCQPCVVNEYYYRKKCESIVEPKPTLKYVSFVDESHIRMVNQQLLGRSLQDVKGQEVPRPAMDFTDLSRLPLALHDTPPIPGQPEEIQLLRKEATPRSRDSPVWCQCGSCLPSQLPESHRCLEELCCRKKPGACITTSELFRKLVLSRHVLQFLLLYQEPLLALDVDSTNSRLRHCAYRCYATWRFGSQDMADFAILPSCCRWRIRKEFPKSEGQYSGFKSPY
Scale note: pIC50 = -log10(concentration in M).

Previously resolved entries follow.
>>> experimental_value("Cc1cnn(C)c1CC(=O)NCc1ccc(F)c(F)c1Cl")
7.50
>>> experimental_value("CN1C(=O)N(CCN2CCOCC2)CC1C(=O)NCc1cccc(C(F)(F)F)c1Cl (stereo not given)")
7.60
>>> experimental_value("O=C(c1ccc(F)c(Cl)c1Cl)N1CCn2c(nnc2-c2cnccn2)C1")
8.70
>>> experimental_value("CN1C(=O)N(c2ncccc2F)C[C@H]1C(=O)NCc1ccc(Cl)cc1Cl")
8.70

GET /value?item= O=C(c1cccc(C(F)(F)F)c1Cl)N1CCn2c(-c3ncccn3)cnc2C1 &field=pIC50 returns 8.80

* * *

Quick reference for pIC50 among some compounds
Sequence of the target: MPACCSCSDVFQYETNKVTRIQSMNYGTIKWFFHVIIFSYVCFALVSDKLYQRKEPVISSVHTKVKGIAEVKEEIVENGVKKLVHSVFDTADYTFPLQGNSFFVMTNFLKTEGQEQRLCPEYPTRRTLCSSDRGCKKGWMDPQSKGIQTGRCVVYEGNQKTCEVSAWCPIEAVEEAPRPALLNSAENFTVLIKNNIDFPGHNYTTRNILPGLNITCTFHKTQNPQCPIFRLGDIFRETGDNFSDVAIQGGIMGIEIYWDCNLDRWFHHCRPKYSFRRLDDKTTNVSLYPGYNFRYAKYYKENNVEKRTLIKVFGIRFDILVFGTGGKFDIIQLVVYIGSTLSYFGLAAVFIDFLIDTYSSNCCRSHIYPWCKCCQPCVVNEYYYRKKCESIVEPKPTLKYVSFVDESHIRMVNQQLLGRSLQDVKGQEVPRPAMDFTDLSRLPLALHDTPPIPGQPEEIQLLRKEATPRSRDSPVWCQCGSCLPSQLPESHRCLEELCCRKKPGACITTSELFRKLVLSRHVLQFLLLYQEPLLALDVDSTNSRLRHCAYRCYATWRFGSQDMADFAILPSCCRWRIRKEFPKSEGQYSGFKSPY
Hey, just a heads up that pIC50 is the negative log base 10 of the concentration in molar.

>>> experimental_value("O=C(c1ccccc1C(F)(F)F)N1CCn2c(nnc2-c2ccccn2)C1")
7.20
>>> experimental_value("O=C1C(=O)N(c2cccc3ncccc23)CCN1Cc1ccc(F)cc1Cl")
6.30
>>> experimental_value("CCN1C(=O)[C@H](Cc2ccccc2)C[C@H]1C(=O)NCc1cccc(C(F)(F)F)c1Cl")
7.50
>>> experimental_value("CN1C(=O)CC[C@H]1C(=O)NCc1cccc2ccccc12")
8.80
>>> experimental_value("O=C(c1ccc(F)cc1Cl)N1CCn2c(nnc2-c2cccc(Cl)c2Cl)C1")
7.00

// pIC50 lookup, compound = O=C(c1cccc(C(F)(F)F)c1Cl)N1CCn2c(-c3cccc(C(F)(F)F)c3Cl)cnc2C1 , result: 6.20

compound CC(C)CN1[C@H](C(=O)NCc2ccc(F)cc2Cl)CCS1(=O)=O , pIC50 observed: 6.30

// field: pIC50; key: O=C(c1ccccc1Cl)N1CCn2c(-c3ccccc3)cnc2C1 ; value = 7.30

Reported pIC50 of Cc1nn(CCN2CCOCC2)c(C)c1CC(=O)NCc1cccc(Cl)c1C : 6.90

pIC50 for CC(C)N1[C@H](C(=O)NCc2ccc(F)cc2C(F)(F)F)CCS1(=O)=O is 6.20

* * *

Values of log10 of IC50 reported for P2X purinoceptor 7 (Homo sapiens) appear below.
Annotation: log10 of IC50, nM basis.

Record excerpt, results attached:
>>> experimental_value("Cc1ccc(C)c(N2CCN(Cc3ccc(F)cc3Cl)C(=O)C2=O)n1")
2.30
>>> experimental_value("Cc1nn(CCN)c(C)c1CC(=O)NCc1ccc(F)cc1Cl")
2.20
>>> experimental_value("O=C(c1cccc(C(F)(F)F)c1Cl)N1CCn2c(-c3ccc(F)cn3)cnc2C1")
0.60

Lab note: measured log10 of IC50 of CN(C)CCn1ncc(CC(=O)NCc2ccc(F)cc2Cl)c1C(F)(F)F was 3.10

// log10 of IC50 lookup, compound = CCN1C(=O)c2ccccc2C1C(=O)NCc1ccc(Cl)cc1Cl (stereo not drawn) , result: 2.60

log10 of IC50 in this record for O=C(c1cccc(C(F)(F)F)c1Cl)N1CCn2c(Br)cnc2C1 : 1.00

Consider CCN1C(=O)N(C)C[C@H]1C(=O)NCc1cccc(C(F)(F)F)c1Cl . Its measured log10 of IC50 is -0.10

Given item CC(C)(C)c1nnc2n1CCN(C(=O)c1cccc(C(F)(F)F)c1Cl)C2 , the value recorded as its log10 of IC50 is 2.30

* * *

The following are reported IC50 results, target or system P2X purinoceptor 7 (Homo sapiens, UniProt Q99572).
State just the number; it will be interpreted in nM.

Below: 8 compounds and their reported IC50.
>>> experimental_value("O=C(c1cccc(C(F)(F)F)c1F)N1CCn2c(nnc2-c2ccccn2)C1")
5.01
>>> experimental_value("CCN1C[C@@H](C(=O)NCc2ccc(Cl)cc2Cl)N(C)C1=O")
3.16
>>> experimental_value("O=C(c1ccc(F)cc1Cl)N1CCn2c(nnc2-c2cccc3cc[nH]c23)C1")
31.6
>>> experimental_value("Cc1nn(-c2ccccc2)c(C)c1CC(=O)NCc1ccc(Cl)c(Cl)c1")
158
>>> experimental_value("CCN1C(=O)CC[C@H]1C(=O)NCc1c(F)ccc(F)c1Cl")
794
>>> experimental_value("O=C1C(=O)N(c2ccccc2N2CCCCC2)CCN1Cc1ccc(F)cc1Cl")
50.1
>>> experimental_value("CN1C(=O)N(Cc2ccccn2)CC1C(=O)NCc1ccc(F)c(F)c1Cl (stereo not given)")
79.4
>>> experimental_value("Cc1cccc(C)c1N1CCN(Cc2ccc(F)cc2C(F)(F)F)C(=O)C1=O")
7.94

Record summary for O=C(c1ccc(F)cc1Cl)N1CCn2c(nnc2-c2cccnn2)C1 : reported IC50 = 501

The measured IC50 associated with Cc1c(CNC(=O)[C@@H]2CCC(=O)N2C2CCC2)cccc1C(F)(F)F reads 3.16

* * *

Target: P2X purinoceptor 7 (Homo sapiens, UniProt Q99572)
Sequence (Q99572 whole entry): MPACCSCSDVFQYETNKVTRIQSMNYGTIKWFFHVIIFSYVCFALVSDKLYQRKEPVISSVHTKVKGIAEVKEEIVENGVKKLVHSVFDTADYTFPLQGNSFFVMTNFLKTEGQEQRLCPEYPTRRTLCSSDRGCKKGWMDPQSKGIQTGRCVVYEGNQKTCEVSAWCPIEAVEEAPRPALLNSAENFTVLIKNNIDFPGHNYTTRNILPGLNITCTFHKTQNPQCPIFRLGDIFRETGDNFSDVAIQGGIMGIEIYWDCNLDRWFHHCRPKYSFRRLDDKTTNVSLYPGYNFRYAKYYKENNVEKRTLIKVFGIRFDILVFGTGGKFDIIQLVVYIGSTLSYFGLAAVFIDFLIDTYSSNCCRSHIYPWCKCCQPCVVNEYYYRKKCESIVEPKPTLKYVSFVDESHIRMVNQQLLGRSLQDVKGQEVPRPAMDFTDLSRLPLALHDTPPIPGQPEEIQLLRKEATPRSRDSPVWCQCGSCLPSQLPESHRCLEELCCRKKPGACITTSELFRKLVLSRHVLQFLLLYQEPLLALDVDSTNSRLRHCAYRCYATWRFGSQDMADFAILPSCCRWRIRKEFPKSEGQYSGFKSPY
Assay: SUPPLEMENTARY: Inhibition of human P2X7 receptor assessed as inhibition of ethidium bromide accumulation. Same assay as CHEMBL1103860
// map IC50 onto a label; ranges lower segment: < 30 nM; middle segment: ≥ 30 nM and < 100 nM; upper segment: ≥ 100 nM

>>> cat("Cc1nn(-c2ncccn2)c(C)c1CC(=O)NCc1ccc(F)c(F)c1F")
"middle segment"
>>> cat("CCN1C(=O)CC[C@@H]1C(=O)NCc1ccc(Cl)c(C(F)(F)F)c1")
"upper segment"
>>> cat("O=C(c1cccc(C(F)(F)F)c1Cl)N1CCn2c(nc(Br)c2-c2ccc(F)cc2)C1")
"middle segment"
>>> cat("O=C(c1cccc(Cl)c1F)N1CCN(c2ccc(F)cc2Cl)C(=O)C1")
"upper segment"

### Prompt Hello team, could you let me know which band the following compound falls into: CN1C(=O)N(c2cn(C)cn2)C[C@H]1C(=O)NCc1ccc(F)c(F)c1Cl
### Response lower segment

### Prompt Quick check: band for Cn1ccc(-c2nnc3n2CCN(C(=O)c2cccc(C(F)(F)F)c2Cl)C3)n1
### Response lower segment

### Prompt Lab log: CC(C)CN1CC(C(=O)NCc2cccc(C(F)(F)F)c2Cl)CC1=O (configuration not stated) — assign IC50 category
### Response middle segment
